tested on: MSTO-211H; test: cells; type: functional, cell-based, Homo sapiens; details: Homo sapiens, MSTO-211H
Description: SANGER: Inhibition of human MSTO-211H cell growth in a cell viability assay.
pIC50: −log10 of the molar value.
Reported property: pIC50

CCC1=C[C@@H]2CN(C1)Cc1c([nH]c3ccccc13)[C@@](C(=O)OC)(c1cc3c(cc1OC)N(C)[C@H]1[C@@](O)(C(=O)OC)[C@H](OC(C)=O)[C@]4(CC)C=CCN5CC[C@]31[C@@H]54)C2 [VINORELBINE]    < 7.19

Form: compound = CN(C)C/C=C/C(=O)Nc1cc2c(Nc3ccc(F)c(Cl)c3)ncnc2cc1O[C@H]1CCOC1 [AFATINIB] ; pIC50 = < 6.30

Form: compound = CN1CCN(CCOc2cc(OC3CCOCC3)c3c(Nc4c(Cl)ccc5c4OCO5)ncnc3c2)CC1 [SARACATINIB] ; pIC50 = < 5.70

Form: compound = COc1ccc(C2=N[C@@H](c3ccc(Cl)cc3)[C@@H](c3ccc(Cl)cc3)N2C(=O)N2CCNC(=O)C2)c(OC(C)C)c1 [NUTLIN-3] ; pIC50 = 5.59

Form: compound = CS(=O)(=O)CCNCc1ccc(-c2ccc3ncnc(Nc4ccc(OCc5cccc(F)c5)c(Cl)c4)c3c2)o1 [LAPATINIB] ; pIC50 = < 5.70

Form: compound = CO[C@H]1C[C@@H]2CC[C@@H](C)[C@@](O)(O2)C(=O)C(=O)N2CCCC[C@H]2C(=O)O[C@H]([C@H](C)C[C@@H]2CC[C@@H](O)[C@H](OC)C2)CC(=O)[C@H](C)/C=C(\C)[C@@H](O)[C@@H](OC)C(=O)[C@H](C)C[C@H](C)/C=C/C=C/C=C/1C [SIROLIMUS] ; pIC50 = < 7.00

----------
system: HEL; test: cells; type: functional, cell-based, Homo sapiens; settings: Homo sapiens, HEL;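 also: growth inhibition of HEL cells, read out with a cell viability assay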
Description: SANGER: Inhibition of human HEL cell growth in a cell viability assay.
Reported property: pIC50
Please note pIC50 is a logarithmic value: minus log10 of concentration in mol/L. Answer with that number alone.

Previously resolved entries follow.
O=C(/C=C/c1ccccc1)NC(NC(=S)Nc1cccc2cccnc12)C(Cl)(Cl)Cl (stereo unspecified) [SALUBRINAL]    4.97
CCC(=O)N1CCN(c2ccc(-n3c(=O)ccc4cnc5ccc(-c6cnc7ccccc7c6)cc5c43)cc2C(F)(F)F)CC1 [TORIN1]    7.79
CN(Cc1cnc2nc(N)nc(N)c2n1)c1ccc(C(=O)N[C@@H](CCC(=O)O)C(=O)O)cc1 [METHOTREXATE]    7.94

# evaluate next
Form: compound = CO[C@H]1C[C@@H]2CC[C@@H](C)[C@@](O)(O2)C(=O)C(=O)N2CCCC[C@H]2C(=O)O[C@H]([C@H](C)C[C@@H]2CC[C@@H](O)[C@H](OC)C2)CC(=O)[C@H](C)/C=C(\C)[C@@H](O)[C@@H](OC)C(=O)[C@H](C)C[C@H](C)/C=C/C=C/C=C/1C [SIROLIMUS] ; pIC50 = 7.30

----------
tested on: NCI-H747; test: cells; assay type: functional, cell-based; conditions: Homo sapiens;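 also: growth inhibition of human NCI-H747 cells, read out by a cell viability assay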
Description: SANGER: Inhibition of human NCI-H747 cell growth in a cell viability assay.
Reported IC50 values are given for each entry in this list.
Unit nM implied. Number only.

Previously resolved entries follow.
Cn1cncc1[C@@](N)(c1ccc(Cl)cc1)c1ccc2c(c1)c(-c1cccc(Cl)c1)cc(=O)n2C    2660
COc1ccc(-c2ccc3c(N4CCOC[C@@H]4C)nc(N4CCOC[C@@H]4C)nc3n2)cc1CO    760

# evaluate next
Form: compound = COc1cc(F)c(F)c(Nc2ccc(I)cc2F)c1NS(=O)(=O)C1(CC(O)CO)CC1 (stereo unspecified) ; IC50 = 657

----------
system: MC116; assay: cells; type: functional, cell-based; details: Homo sapiens
Description: SANGER: Inhibition of human MC116 cell growth in a cell viability assay.
Reported property: pIC50
Please note pIC50 is a logarithmic value: minus log10 of concentration in mol/L. Answer with that number alone.

CO[C@H]1C[C@@H]2CC[C@@H](C)[C@@](O)(O2)C(=O)C(=O)N2CCCC[C@H]2C(=O)O[C@H]([C@H](C)C[C@@H]2CC[C@@H](O)[C@H](OC)C2)CC(=O)[C@H](C)/C=C(\C)[C@@H](O)[C@@H](OC)C(=O)[C@H](C)C[C@H](C)/C=C/C=C/C=C/1C [SIROLIMUS]    9.01
Cc1cc(Nc2cc(N3CCN(C)CC3)nc(Sc3ccc(NC(=O)C4CC4)cc3)n2)n[nH]1 [TOZASERTIB]    6.07
COC(=O)CNC(=O)C(=O)OC    3.76

# evaluate next
Given the compound Nc1ccn([C@@H]2O[C@H](CO)[C@@H](O)[C@@H]2O)c(=O)n1 [CYTARABINE] and test system MC116, the measured pIC50 is 5.89

----------
system: COR-L105; assay: cells; format: functional, cell-based, Homo sapiens; settings: Homo sapiens, COR-L105;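 also: cell growth inhibition determined with a viability assay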
Description: SANGER: Inhibition of human COR-L105 cell growth in a cell viability assay.
Reported property: pIC50
Please note pIC50 is a logarithmic value: minus log10 of concentration in mol/L. Answer with that number alone.

Form: compound = Cn1cncc1[C@@](N)(c1ccc(Cl)cc1)c1ccc2c(c1)c(-c1cccc(Cl)c1)cc(=O)n2C ; pIC50 = 5.14

----------
tested on: A-427; experiment: cells; type: functional, cell-based, Homo sapiens; details: Homo sapiens, A-427
Description: SANGER: Inhibition of human A427 cell growth in a cell viability assay.
Reported pIC50 values are given for each entry in this list.
Please note pIC50 is a logarithmic value: minus log10 of concentration in mol/L. Answer with that number alone.

Previously resolved entries follow.
COc1cc(F)c(F)c(Nc2ccc(I)cc2F)c1NS(=O)(=O)C1(CC(O)CO)CC1 (configuration not stated)    5.35
Cn1cncc1[C@@](N)(c1ccc(Cl)cc1)c1ccc2c(c1)c(-c1cccc(Cl)c1)cc(=O)n2C    6.24
CC(=O)O[C@@]12CO[C@@H]1C[C@H](O)[C@@]1(C)C(=O)[C@H](O)C3=C(C)[C@@H](OC(=O)[C@H](O)[C@@H](NC(=O)OC(C)(C)C)c4ccccc4)C[C@@](O)([C@@H](OC(=O)c4ccccc4)[C@H]21)C3(C)C    8.83

# evaluate next
Form: compound = COc1ccc(-c2ccc3c(N4CCOC[C@@H]4C)nc(N4CCOC[C@@H]4C)nc3n2)cc1CO ; pIC50 = 6.02

----------
Reported pIC50 values are given for each entry in this list.
test system: RVH-421; experiment: cells; type: functional, cell-based, Homo sapiens; conditions: Homo sapiens, RVH-421
Description: SANGER: Inhibition of human RVH-421 cell growth in a cell viability assay.
Please note pIC50 is a logarithmic value: minus log10 of concentration in mol/L. Answer with that number alone.

CC(=O)O[C@@]12CO[C@@H]1C[C@H](O)[C@@]1(C)C(=O)[C@H](O)C3=C(C)[C@@H](OC(=O)[C@H](O)[C@@H](NC(=O)OC(C)(C)C)c4ccccc4)C[C@@](O)([C@@H](OC(=O)c4ccccc4)[C@H]21)C3(C)C    8.34

Form: molecule = COC(=O)CNC(=O)C(=O)OC ; pIC50 = 2.88

----------
tested on: RD; assay: cells; assay type: functional, cell-based, Homo sapiens; conditions: Homo sapiens, RD
Description: SANGER: Inhibition of human RD cell growth in a cell viability assay.
Reported IC50 values are given for each entry in this list.
Unit nM implied. Number only.

Previously resolved entries follow.
CC(=O)O[C@@]12CO[C@@H]1C[C@H](O)[C@@]1(C)C(=O)[C@H](O)C3=C(C)[C@@H](OC(=O)[C@H](O)[C@@H](NC(=O)OC(C)(C)C)c4ccccc4)C[C@@](O)([C@@H](OC(=O)c4ccccc4)[C@H]21)C3(C)C [DOCETAXEL]    4
Nc1ccn([C@@H]2O[C@H](CO)[C@@H](O)[C@@H]2O)c(=O)n1 [CYTARABINE]    1270
C[C@]1(O)C[C@@H](c2nc(-c3ccc4ccc(-c5ccccc5)nc4c3)c3c(N)nccn32)C1 [LINSITINIB]    1260
CCC1=C[C@@H]2CN(C1)Cc1c([nH]c3ccccc13)[C@@](C(=O)OC)(c1cc3c(cc1OC)N(C)[C@H]1[C@@](O)(C(=O)OC)[C@H](OC(C)=O)[C@]4(CC)C=CCN5CC[C@]31[C@@H]54)C2 [VINORELBINE]    5.42

# evaluate next
Form: compound = Cn1cncc1[C@@](N)(c1ccc(Cl)cc1)c1ccc2c(c1)c(-c1cccc(Cl)c1)cc(=O)n2C [TIPIFARNIB] ; IC50 = 12000

----------
tested on: SCC-15; assay: cells; format: functional, cell-based, Homo sapiens; conditions: Homo sapiens, SCC-15
Description: SANGER: Inhibition of human SCC-15 cell growth in a cell viability assay.
Reported IC50 values are given for each entry in this list.

Previously resolved entries follow.
CO[C@H]1C[C@@H]2CC[C@@H](C)[C@@](O)(O2)C(=O)C(=O)N2CCCC[C@H]2C(=O)O[C@H]([C@H](C)C[C@@H]2CC[C@@H](O)[C@H](OC)C2)CC(=O)[C@H](C)/C=C(\C)[C@@H](O)[C@@H](OC)C(=O)[C@H](C)C[C@H](C)/C=C/C=C/C=C/1C    > 0.1 µM
O=C(/C=C/c1ccccc1)NC(NC(=S)Nc1cccc2cccnc12)C(Cl)(Cl)Cl (stereo not given)    > 16 µM
CCC1=C[C@@H]2CN(C1)Cc1c([nH]c3ccccc13)[C@@](C(=O)OC)(c1cc3c(cc1OC)N(C)[C@H]1[C@@](O)(C(=O)OC)[C@H](OC(C)=O)[C@]4(CC)C=CCN5CC[C@]31[C@@H]54)C2    0.0087 µM

Given the molecule O=c1cc(-c2cccc3c2Sc2ccccc2S3)oc(N2CCOCC2)c1 and test system SCC-15, the measured IC50 is > 10 µM

Given the molecule Cc1cc(Nc2cc(N3CCN(C)CC3)nc(Sc3ccc(NC(=O)C4CC4)cc3)n2)n[nH]1 and test system SCC-15, the measured IC50 is > 2 µM
